Test system: NF-κB
Test: NF-κB luciferase reporter assay in RAW 264.7 macrophages
Type: cell-based
Conditions: Mus musculus, RAW264.7, 3 h, read-out: NF-kB inhibitory activity IC50 μM
IC50 values by entry

{"molecule": "CC/C=C\\C/C=C\\C/C=C\\C/C=C\\C/C=C\\CCCC(=O)NCCNP(=O)(OC[C@@H]1OC(n2ccc(N)nc2=O)CS1)Oc1ccccc1 (stereo partly drawn)", "systemTested": "NF-κB", "IC50": "50 to 200 µM"}
{"molecule": "CC/C=C\\C/C=C\\C/C=C\\C/C=C\\C/C=C\\C/C=C\\CCC(=O)Nc1ccc(S(=O)(=O)N(CC(C)C)C[C@@H](O)[C@H](Cc2ccccc2)NC(=O)O[C@H]2CO[C@H]3OCC[C@H]32)cc1", "systemTested": "NF-κB", "IC50": "50 to 200 µM"}
{"molecule": "CC/C=C\\C/C=C\\C/C=C\\C/C=C\\C/C=C\\C/C=C\\CCC(=O)NCCNC(=O)OC[C@@H]1O[C@H](n2ccc(N)nc2=O)CS1", "systemTested": "NF-κB", "IC50": "50 to 200 µM"}
{"molecule": "CC(C)CN(C[C@@H](O)[C@H](Cc1ccccc1)NC(=O)O[C@H]1CO[C@H]2OCC[C@H]21)S(=O)(=O)c1ccc(N)cc1 [Darunavir, darunavir, reference compound]", "systemTested": "NF-κB", "IC50": "> 200 µM"}
{"molecule": "CC/C=C\\C/C=C\\C/C=C\\C/C=C\\C/C=C\\CCCC(=O)NCCNP(=O)(OC)OC[C@@H]1O[C@H](n2ccc(N)nc2=O)CS1 (stereo partly drawn)", "systemTested": "NF-κB", "IC50": "50 to 200 µM"}
{"molecule": "C=C1[C@H](COP(=O)(NCCNC(=O)CCC/C=C\\C/C=C\\C/C=C\\C/C=C\\C/C=C\\CC)OC)[C@@H](O)C[C@@H]1n1cnc2c(=O)nc(N)[nH]c21 (stereo partly drawn)", "systemTested": "NF-κB", "IC50": "50 to 200 µM"}

Source of measurements: patent US20140288025A1
